Source listed as patent US4728509A.

Experiment: Solubility test of compound (a) with and without solubilizers (Experimental Example 1; HPLC of filtrate)
Details: phosphate buffer, pH 7, aqueous buffer, Solubility of Compound (a), Polyvinylpyrrolidone (average molecular weight 40000) 50 mg/ml; pH 7.0, 25° C., 48 hours
Measure: solubility at 48 h (µg/mL)

INSERT INTO results (given_smiles, value) VALUES
  ('CC(C)c1ccc2oc3nc(N)c(C(=O)O)cc3c(=O)c2c1', 3230);

* * *

Assay: Solubility test of compound (a) with and without solubilizers (Experimental Example 1; HPLC of filtrate)
Settings: phosphate buffer, pH 7, aqueous buffer, Solubility of Compound (a), β-Cyclodextrin 10 mg/ml; pH 7.0, 25° C., 48 hours
Measure: solubility at 48 h (µg/mL)

INSERT INTO results (given_smiles, value) VALUES
  ('CC(C)c1ccc2oc3nc(N)c(C(=O)O)cc3c(=O)c2c1', 2300);

* * *

Assay: Solubility test of compound (a) with and without solubilizers (Experimental Example 1; HPLC of filtrate)
Settings: phosphate buffer, pH 6.5, aqueous buffer, Solubility of Compound (a), Nicotinic acid amide 10 mg/ml; pH 6.5, 25° C., 48 hours
Measure: solubility at 48 h

INSERT INTO results (compound, value) VALUES
  ('CC(C)c1ccc2oc3nc(N)c(C(=O)O)cc3c(=O)c2c1 [Compound (a)]', '820 µg/mL');

* * *

Experiment: Solubility test of compound (a) with and without solubilizers (Experimental Example 1; HPLC of filtrate)
Details: phosphate buffer, pH 6, aqueous buffer, Solubility of Compound (a), β-Cyclodextrin 10 mg/ml; pH 6.0, 25° C., 48 hours
Measure: solubility at 48 h (µg/mL)

INSERT INTO results (given_smiles, measure, value) VALUES
  ('CC(C)c1ccc2oc3nc(N)c(C(=O)O)cc3c(=O)c2c1', 'solubility at 48 h', 720);

* * *

Experiment: Solubility test of compound (a) with and without solubilizers (Experimental Example 1; HPLC of filtrate)
Details: phosphate buffer, pH 6, aqueous buffer, Solubility of Compound (a), Sodium benzoate 20 mg/ml; pH 6.0, 25° C., 48 hours
Measure: solubility at 48 h (µg/mL)

INSERT INTO results (given_smiles, unit_string, value) VALUES
  ('CC(C)c1ccc2oc3nc(N)c(C(=O)O)cc3c(=O)c2c1', 'µg/mL', 40);

* * *

Assay: Solubility test of compound (a) with and without solubilizers (Experimental Example 1; HPLC of filtrate)
Settings: phosphate buffer, pH 7, aqueous buffer, Solubility of Compound (a), Caffeine 10 mg/ml; pH 7.0, 25° C., 48 hours
Measure: solubility at 48 h

INSERT INTO results (given_smiles, value) VALUES
  ('CC(C)c1ccc2oc3nc(N)c(C(=O)O)cc3c(=O)c2c1', '7050 µg/mL');

* * *

Test: Stability test of compound (a) in solution, remaining ratio at 60° C. (Experimental Example 2)
Assay type: physicochemical
Conditions: phosphate buffer, pH 7.5, no adjuvant; compound (a) 1.0 mg/ml; pH 7.5±0.1; 60° C. after four weeks
Measure: remaining at 672 h (%)

INSERT INTO assay_data (given_smiles, unit_string, value) VALUES
  ('CC(C)c1ccc2oc3nc(N)c(C(=O)O)cc3c(=O)c2c1', '%', 85.4);
